Cited source: a collection of fitness landscapes (doi:10.1016/j.celrep.2020.107928)

Listed variants paired with reported one-hybrid fitness for binding NBS DNA
B1: Caulobacter ParB omega fusion; a variant is named by its letters at X, in order, B8GW30 (parent)
chain: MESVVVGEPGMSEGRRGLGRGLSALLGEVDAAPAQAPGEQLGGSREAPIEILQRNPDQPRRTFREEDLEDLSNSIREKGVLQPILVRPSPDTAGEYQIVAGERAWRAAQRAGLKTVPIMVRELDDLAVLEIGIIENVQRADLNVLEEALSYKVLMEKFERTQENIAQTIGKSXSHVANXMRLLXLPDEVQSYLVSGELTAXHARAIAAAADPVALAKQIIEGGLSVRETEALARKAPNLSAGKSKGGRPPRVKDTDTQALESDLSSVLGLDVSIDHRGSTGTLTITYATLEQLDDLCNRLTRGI

Variants of: B1
Assay Name: one-hybrid fitness for binding NBS DNA (the Noc-binding site; scaled: cognate 1, non-cognate 0); higher = stronger binding
Run Conditions: with NBS DNA site
The full ranking holds about 81,000 sequences; the median of “one-hybrid fitness for binding NBS DNA” is about -0.1, and the highest 2% start at about 0.36. For the sample, the highest values were picked, then their nearest neighbours and some sequences at random.

Examples from the recorded data:
| Mutation Code | Assay Result |
| --- | --- |
| QSDT | 0.32 |
| IMYD | ≤ 0.2 |
| QKPT | 0.306 |
| QKCT | 0.475 |
| QTQS | 0.504 |
| VKLR | ≤ 0.2 |

Specify measured one-hybrid fitness for binding NBS DNA for `QINT` .
0.462

Specify measured one-hybrid fitness for binding NBS DNA for `QTWN` .
≤ 0.2

Specify measured one-hybrid fitness for binding NBS DNA for `QKMS` .
0.414

Specify measured one-hybrid fitness for binding NBS DNA for `DSKV` .
≤ 0.2

Specify measured one-hybrid fitness for binding NBS DNA for `GHPM` .
≤ 0.2

Specify measured one-hybrid fitness for binding NBS DNA for `HTTL` .
≤ 0.2

Specify measured one-hybrid fitness for binding NBS DNA for `RCMH` .
≤ 0.2

Specify measured one-hybrid fitness for binding NBS DNA for `FGEY` .
≤ 0.2

Specify measured one-hybrid fitness for binding NBS DNA for `HDRS` .
≤ 0.2
